Tested on: NCI-H226 lung
ASSAY PROTOCOL: NCI tumour cell line growth inhibition, 48 h
ENDPOINT: TGI

Here are 5 molecules together with their reported answers.
MOLECULE	RESULT
CC(NC(=O)C(C)NC(=O)C(N)CCP(C)(=O)O)C(=O)O (stereo not drawn)	> 100 µM
O=C(c1ccccc1)N1CCN(C(=S)N(C(=O)c2ccccc2)c2ccccc2)C1=S	32 µM
COc1ccc2c(C)cc(N/N=C/c3ccc(OC)c4ccccc34)nc2c1	29.6 µM
CN(C)CCCNC(=O)c1cc(NC(=O)c2cc(NC(=O)CCc3c[nH]c4ccccc34)cn2C)cn1C	> 100 µM
COc1ccc(-c2cc(=O)c3ccc(C)nc3[nH]2)cc1	> 100 µM

Go through the list and state TGI for each entry.
1. COc1ccc2c(CN3CCCCC3CO)cc3cc(OC)c(OC)cc3c2c1 (stereo not drawn)
2. COc1ccc(-c2cn[nH]c2-c2cc(OC)c3c(c2)OCO3)cc1
3. Cn1cc(C2=C(c3cn(CCCCN)c4ccccc34)C(=O)NC2=O)c2ccccc21
4. COc1ccc(OC)c(/C(C)=N/NC(N)=S)c1
5. CCCCCC(=O)C(C)C1=Nc2nnc(CCCCCCCc3nnc4n3C(=O)C(C(C)C(=O)CCCCC)=N4)n2C1=O (stereo not drawn)
6. O=C(c1ccco1)N1CCCN(C(=O)c2ccco2)C1=S
7. Cc1nc(C)c(C(=O)NNC(N)=S)cc1C(=O)NNC(N)=S
8. CC[N+](CC)=c1sc2c(s1)C(c1ccc(Cl)cc1)Oc1ccc(Cl)cc1-2 (stereo not drawn)

stdout:
1. 16.7 µM
2. 22.3 µM
3. > 25 µM
4. > 100 µM
5. > 100 µM
6. > 100 µM
7. > 100 µM
8. 33.1 µM

---

Tested on: HCT-15 colon
ASSAY PROTOCOL: NCI tumour cell line growth inhibition, 48 h
Please go through the items and note down their TGI.
Answers are plain numbers, in µM.

MOLECULE	UNIT TAG	NUMERIC RESULT
COc1ccc2c(CN3CCCCC3CO)cc3cc(OC)c(OC)cc3c2c1 (stereo not given)	µM	20.8

# input for lookup
stdin: Consider the molecule Cc1ccc(S(=O)(=O)NC(=O)C2C(=O)CC3(CCCCC3)CC2=O)cc1 and give its measured TGI.
stdout: 62.4

---

Test system: NCI-H23 lung
ASSAY PROTOCOL: NCI tumour cell line growth inhibition, 48 h
ENDPOINT: TGI

Here are 3 molecules together with their reported answers.
MOLECULE	TGI
O=C(O)c1cc2ccccc2c(N=Nc2ccc(S(=O)(=O)Nc3nccs3)cc2)c1O	> 100 µM
CCCCC(=O)NS(=NC(=O)c1ccccc1)C(Cl)(Cl)Cl (centres undefined)	> 100 µM
CCSc1sc(=Nc2ccc(N=c3sc(C)c(SC)s3)cc2)sc1-c1ccc(C)cc1	> 100 µM

# input for lookup
stdin: Consider the molecule Oc1ccc(-c2nc(-c3cccnc3)c(-c3ccc(Cl)cc3)[nH]2)cc1O and give its measured TGI.
stdout: 23.9 µM

---

Test system: OVCAR-8 ovarian
ASSAY PROTOCOL: NCI tumour cell line growth inhibition, 48 h
Where a SMILES comes first, the peptide text is derived from it. The star is where a group is joined. Boc = CC(C)(C)OC(=O)*
ENDPOINT: TGI

Here are 5 compounds together with their reported answers.
COMPOUND	TGI
O=C1Nc2ccccc2C12CCNC2Cc1ccccc1 (stereo not drawn)	> 100 µM
CC[C@]12C=CCN3CC[C@@]4(c5cc(Br)c(OC)cc5N(C)[C@H]4[C@@](O)(C(=O)NN)[C@@H]1O)[C@@H]32	> 100 µM
COc1cc2c(cc1OC)C(C(CO)CO)N(CC(O)CCl)CC2 (stereo not drawn)	> 100 µM
O=C1c2ccc(O)cc2C(=O)c2ccc(O)cc21	> 100 µM
COC(=O)C(Cc1c[nH]c2ccccc12)NC(=O)C(Cc1c[nH]c2ccccc12)NC(=O)C(Cc1c[nH]c2ccccc12)NC(=O)C(Cc1c[nH]c2ccccc12)NC(=O)C(Cc1c[nH]c2ccccc12)NC(=O)C(Cc1c[nH]c2ccccc12)NC(=O)OC(C)(C)C (stereo not drawn) (Boc-WWWWWW-OMe; configuration not given here)	> 100 µM

Go through the list and state TGI for each entry.
1. O=C(/C=C/c1ccc(O)cc1)c1ccc2c(c1)OCO2
2. CCCCC(=O)NS(=NC(=O)c1ccccc1)C(Cl)(Cl)Cl (stereo not drawn)
3. Cc1nc(C)c(C(=O)NNC(N)=S)cc1C(=O)NNC(N)=S
4. COC(=O)CCc1c[nH]c2ccc(N(CCCl)CCCl)cc12
5. COc1ccc(/C=N/n2cnc3c(sc(=S)n3-c3ccccc3)c2=O)cc1
6. COc1ccc2c(c1)N1CCc3cc(OC)c(OC)cc3C1C2 (stereo not drawn)

stdout:
1: 29.6 µM; 2: > 100 µM; 3: > 100 µM; 4: > 60.5 µM; 5: > 100 µM; 6: > 100 µM

Go through the list and state TGI for each entry.
1. COc1ccc(-n2cnnc2-c2nsc3ccccc23)cc1
2. CCCCc1ccc(Nc2nc3c(ncn3C3CC(O)C(CN=[N+]=[N-])O3)c(=O)[nH]2)cc1 (stereo not drawn)

stdout:
1. > 100 µM
2. > 100 µM

Ref: PubChem BioAssay (NCI)
